Recorded values, source the RNAGym collection of RNA variant scans (doi:10.1093/nar/gkz1192).

Measured self-cleavage values are reported for all entries that follow.
B1: CPEB3 Ribozyme (parent)
chain: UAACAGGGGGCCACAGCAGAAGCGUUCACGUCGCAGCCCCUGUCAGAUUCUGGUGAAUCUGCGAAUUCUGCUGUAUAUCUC

Variants of: B1
Test: self-cleavage, relative activity (ratio to wild type); higher = more cleavage; in vitro, sequencing

Sample answers from the record:
MUTATION NOTATION: C29A U49C
self-cleavage: 0.29
//
MUTATION NOTATION: A20U A47G
self-cleavage: 0.33

Please turn your attention to the following entry.
QUERY: Which self-cleavage value belongs to U69G U72A ?
RESULT: 0.35
